assay: yeast display, Sf9 membrane polyspecificity reagent, FACS + sequencing; frameworks hold sequencing errors
Endpoint name: polyreactivity (PSR sort gate)

>>> reported_result("QVQLVESGGGLVQAGGSLRLSCAASGSIFGYNAMGWYRQAPGKERELVAAITSIGGNTYADSVKGRFTISRDNAKNTVYLQMNSLKPEDTAVYYCAAERNTDPIQVVYEFDYWGQGTQVTVSS")
"low polyreactivity"
>>> reported_result("QVQLVESGGGLVQAGGSLRLSCAASGITFINYDMGWYRQAPGKERELVAAISQIGTSTYYADSVKGRFTISRDNAKNTVYLQMNSLKPEDTAVYYCNARYISTGFRYNYWGQGTQVTVSS")
"high polyreactivity"
>>> reported_result("QVQLVETGGGIVQAGGSLRLSCAASGITFQSNTMGWYRQSPGKERELVAAITWTGGRTYYADSVKGRFTISRDNAKNTVYLQMNSLTPEDTAVYYCNADGYAICYNGKLDYWGQGTQVTVSS")
"high polyreactivity"
>>> reported_result("QVQLVESGGGLVQAGGSLRLSCAASGSIFKGYAMGWYRQAPGKERELVAAITYSGGGTYYADSVKGRFTISRDNAKNTVYIQMNILKPEDTAVYYCNADRYYPDDLSDGVGTYDYWGQGTQVTVSS")
"low polyreactivity"
>>> reported_result("QVQLVESGGGLVQAGGSLRLSCAASGSTFSTNAMGWYRQAPGKERELVAAISWSDDDTYYADSVKGRFTISRDNAKNTVYLQMNSLKPEDTGVYYCAAEGVGPARVYQGGEYNYWGQGTQVTVSS")
"low polyreactivity"
>>> reported_result("QVQLVESGGGLVQAGGSLRLSCAASGLTFTHYALGWYRQAPGKERELVAAIAWRGGSTYYADSVKGRFTISRDNAKNTVYLQMNSLKPEDTAVYYCAVARSYRGEMDYWGQGTQVTVSS")
"low polyreactivity"
>>> reported_result("QVQLVESGGGLVQAGGSLRLSCADSGITFFIYAMGWYIQAPGKERELVAAISGRSGSTYYADSVKGRFTISRDNAKNTVYLQMNSLKPEDTAVYYCAAGLTFFSYSLDYWGQGTQVTVSS")
"low polyreactivity"
>>> reported_result("QVQLEESGGGLVQAGGSLRLSCAASGRIFPRYAMGWYRQAPGKERELVATISSGGSTYYADSVKGRFTISRDNATNTVYLQMNSLTPEDTAVYYCAARKRPYSVINGMDYWGQGTQVTVSS")
"low polyreactivity"
>>> reported_result("QVQLVESGGGLVQAGGSLRLSCAASRFIFQPYAMGWYRQAPGKERELVAAITSRGGRTYYADSVKGRFTISRDNAKNTVYLKMNSLKPEDSAVYYCNADIYASEYYYWGQGTQVTVSS")
"low polyreactivity"
>>> reported_result("QVQLVESGGGLVQAGGSLRLSCAASGRIFYPYVMGWYRQAPGKERELVAAISDSTGSTYYADSVKGRFTISRDNAKNTVYLQMNSLKPEDTAVYYCAAGWFYATYWRFYYWGQGTQVTVSS")
"low polyreactivity"
>>> reported_result("QVQLVESGGGLVQAGGSLRLSCAASGRIFDTYAMGWDRPAPRKERELVAAINSGGRTYYADSVKGRFTISRDNAKNTVYVQMNSLKPEDTAVYYCAAYITYSYGRYGSWGQGTQVTVSS")
"high polyreactivity"

----------
assay: yeast display, Sf9 membrane polyspecificity reagent, FACS + sequencing; frameworks hold sequencing errors
Endpoint name: polyreactivity (PSR sort gate)

>>> reported_result("QVQLEESGAGLVQARGSLRLSCAASGRTFIWNAMGWYRQAPGKERELVAAISSRGGRTYYADSVKGRFTISRDNAKNTVYLQMNILKPEDTAVYYCAAYYITFIGRGYGYWGQGTQVTVSS")
"high polyreactivity"
>>> reported_result("QVQLVESGGGLVQGGGSLRLSCAASGINFSVYPMGWYRQAPGKERELVAAISVGGGRTYYAYSVKGRFTISRDYAKNTFYLEMNSLKAEDTAVYYCDARLGTRQYKMDYWGQGTQVTVSS")
"high polyreactivity"
>>> reported_result("QVKLEESGGGLVQAGGSLRLSCAASGSTFRAYTMGWYRQAPAKEREFVAAISRSGGSTFYADSVKGRFTISRDYAKNTVYLQMNSLKPEDNAVYYCAASYRYSASYYWGEGTQVTVSS")
"high polyreactivity"

----------
test: yeast display, Sf9 membrane polyspecificity reagent, FACS + sequencing; frameworks hold sequencing errors
Endpoint name: polyreactivity (PSR sort gate)

>>> reported_result("QVQLVESGGALVQAGGSLRLSCAASGSTLVTNAMGWYRKAPGKERELVAAITFSGGTTYYADSVKGRFTISRDNAKNTVYLQMNSLTPEDTAVYYCGAEIWLEYVGYDYWGQGTQVTVSS")
"high polyreactivity"
>>> reported_result("QVKLVDSGGGLVQAGGSLRLSCAASGRIIRINAMGWYRQAPGKERELVAAITRGGTTYADSVKGRFTISRDNAKNTVYLQMNSLKPEDTAVYYCNARTGRSPTGFRYWGQGTQVTVSS")
"high polyreactivity"
>>> reported_result("QVQLVESGVGLVQAGGSLRLSCASSGLIFYDNMGWYRQAPGKERELVAAISSSGGSTSYADSVKGRFTISRDNAKNTVYLQMNSLKPEDTAVYYCAADYRRYGSYDYWGQGTQVTVSS")
"low polyreactivity"
>>> reported_result("QVQLVESGGGLVQAGGSLRLSCAASGFISVRNAMGWYRQAPGKEREFVAAISGGGGSTYYADSVKGRFTISRDNAKNTVYLQMNSLKPEDTAVYYCNAPRYLYSAGRFNYWGQGTQVTVSS")
"high polyreactivity"
>>> reported_result("QVQLVESGGGLVQAGGSLRLSCAASGSIFDDYAMGWYRQAPGKERELVAAITSGGSTYYADSVKGRFTISLDNAKNTVYLQMNSLKPEDTAVYYRATRYHWSSSFAPVGAYGYWGQATQVTVSS")
"low polyreactivity"
>>> reported_result("QVQLVESGGGLVQAGGSLRLSCAASGGTFHRYAMGWYRQAPGKERELVAAISGSGASTYYADSVKGRFTISRDNAKNTVYLQMNSLKPEDTAVYYCNALWYYQIGPRGDHWGQGTQVTVSS")
"high polyreactivity"
>>> reported_result("QVQLVESGGGLVQAGGSLRLSCAASGRTFLNYPMGWYRPAPGKERELVASISSSGARTYYADSVKGRFTISRDNAKNTVYLQMNSLKPEDTAVYFCAVTAGRGGYPQGGVTRGYWGQGTQVTVSS")
"high polyreactivity"
>>> reported_result("QVQLVESGGGLVQAGGSLRLSCAASGSIFHTYVMGWYRQAPGKERELVASITRSGGSTYYADSVKGRFTISRDNAKKTVYLQMNSLKPEDTAVYYCAATYRTANHRYYYWGQGTQVTVSS")
"high polyreactivity"
>>> reported_result("QVQLVESGGGLVQAGGSLRLSCAASGRTIPIYAMGWYRQAPGKERELVAAITRGGRTNYADSVKGRFTISRDNAKNTVYLQMNSLKPEDTAVYYCAARTYGTYLYAEYDYWGQGTQVTVSS")
"high polyreactivity"
>>> reported_result("QVQLVDSGGGLVQAGGSLRLSCAASGRNFNEYAMGWSRPAPGKERELVAAISSSGDSTYYADSVKGRFTISRDNAKNTVYLQMNSLKPEDTAVYYGAAQVVVWYPYVYFPGSDYWGQGTQVTVSS")
"low polyreactivity"
>>> reported_result("QVQHVESGGGLVQAGGSLRLSCAASGYIFYTYAMGWYRQAPGKERELVAGINRGDSTNYADSVKGRFTISRDNAKNTVYLQMNSLKPEDTAVYYCNARQRTYYRTHRIRHKGNGYWGQGTQVTVSS")
"low polyreactivity"

----------
experiment: yeast display, Sf9 membrane polyspecificity reagent, FACS + sequencing; frameworks hold sequencing errors
Endpoint name: polyreactivity (PSR sort gate)

>>> reported_result("QVQLQESGAGLVQAGVSLRLSCAASGYISTFSSEMGWYRQAPGKDRELVASIAPGCTTSYADSVKGRFTISRDKAKNTVFLQMNSLKPEDTAVYYCAVDYTVPASFGYWGQGTQVTVSS")
"high polyreactivity"
>>> reported_result("QVQLVESGGGLVQAGGSLRLSCAASGSTFLWYAMGWYRQAPGKERELVATISGSGGSTYYADSVKGRFTISRDNAKNTVYLQMNSLKPEDTAVYYCARDTLGGTSLGDYWGQGTQVTVSS")
"high polyreactivity"
>>> reported_result("QVQLVESGGGLVQAAGSLRLSCAASGYIFQYYAMGWYRQAPGKERELVAAITGGGSTKYADSVKGRFTISRDNAKNTVYLQMNSLKPEDTAVYYCAASLWYRISKYDYWGQGTQVTVSS")
"high polyreactivity"
>>> reported_result("QVQLVESGGGLVQAGGSLRLICAASGSIFFVYDMGWYRQAPGKERELVAAITWSGGRTTYADSVKGRFTISRDNAKNTVYLQMNSMKPEDTAVYYCAKAWPDHWYSRYDYWGQGTQVTVSS")
"low polyreactivity"
>>> reported_result("QVQLVESGGGLVQAGGSLRLSCAASGRTFNYYAMGSYRQAPGKERELVAAISWSGTPTYYADSVKGRFTISRDNAKNTVYLQMNSLKPEDTAVYYCAAHSGSTYKYWGQGTQVTVSS")
"low polyreactivity"
>>> reported_result("QFQLVESGGGLVQAGGSLRLSCAASGRTFGTYAMGWYRQAPGKEREVVAAISTRGGRTFYADSVKGRFTISRDNAKNTVYLQMNSLKPEDTAVYYCAARGTDPGHKYEYWGQGTQVTVSS")
"high polyreactivity"
>>> reported_result("QVQLVESGGGIVQAGGSLRLSCAASGSTYNLNALGWSRQAPGKERELVAAIDSGGRTNYADSVKGRFTISRDNAKNTVYVQMNSLKPEDTAVYYCAADVYAYPGSWYDYWGQGTQVTVSS")
"low polyreactivity"
>>> reported_result("QVQLVESGGGLVQAGGSHRLSCAASGRPSAVNALGWSRQAPGKERELVAAITYGGDSTFYADSVKGRFTISRDNAKNTVYLQMNSLKPEDTAVYYCNADIWFIWHSFGWGYDYWGQGTQVTVSS")
"low polyreactivity"
>>> reported_result("QVQLVESAGGLDQAGGSLRLICDASGFISRNAMGWYTQAPGKERELVAAITRGGSTNYADSVKGRFTISRDNAKNTVYLQMNSLKPEDSAVYYCNQQRQGNSRSYYQTYYGMYYWGQGTQVTVSS")
"high polyreactivity"
>>> reported_result("QVQLVESGGGLVQAGGSLRLSCAASGSIFGSYAMGWYRQAPGKERELVAAISWRGGRTYYADSVKGRFTISRDNAKNTVYLQMNSLKPEDTAVYYCAAERHARSSYEYWGQGTQVTVSS")
"low polyreactivity"
>>> reported_result("QVQLVESGGGLVQAGGSLRLSCDASGLTFHRYAMGWYRQAPGKERELVAAINYSGGRTYYADSVKGRFTISRDNAKNTFYLQMNSLKPEDTAVYYCAAPRASGYFWGQGTQLTVSS")
"high polyreactivity"
